Target Of Assay: Neurogenic locus notch homolog protein 2 (Homo sapiens)
Procedure Summary: Notch2 binders on small-molecule microarrays, primary screen, biochemical, small-molecule microarray, 635 nm fluorescence, stem cell growth factors (AID 1073)
Experimental Conditions: Notch2 binding, higher = more signal
Give composite z-score for every item shown.

C#C[C@@H](CC)O[Si](C#Cc1ccc(Oc2ccccc2)cc1)(C(C)C)C(C)C | 0.824
C[C@@H]1CCC2C(=O)N(Cc3ccccc3)C[C@@H](O)CN2[C@H]1c1ccc(Br)cc1 (stereo partly drawn) | -0.05
O=C1O[C@@H](c2ccccc2)[C@@H](c2ccccc2)N2[C@@H](c3ccc(O)cc3)[C@]3(C(=O)Nc4ccccc43)[C@@H](C(=O)O)[C@H]12 | 0.0863

Batch: composite z-score for all items listed.
1. CCOC(=O)NN=C1C[C@@H](O)[C@@H](O)[C@@H]2[C@@H]3C(=O)N(CC)C(=O)[C@@H]3CC[C@@H]12
2. CC(C)c1ccc(NN2C(C(O)c3ccc4c(c3)OCO4)C=CC3C(=O)N(c4ccccc4)C(=O)C32)cc1 (stereo not drawn)

1: 0.797; 2: 1.34

Batch: composite z-score for all items listed.
1. CCCCCN1CC=CC23O[C@@H]4C=CCOC(=O)[C@@H]4[C@H]2C(=O)N(CCCCCCO)[C@@H]3C1=O (stereo partly drawn)
2. COc1ccc(-c2nc3c(c4c2C[C@H](C)OC4)CN(CCC(C)C)CC3)cc1
3. CCc1cccc(NC(=O)O[C@H]2[C@H](OC(=O)Nc3ccc4c(c3)OCO4)[C@@H](OC(=O)Nc3ccc4c(c3)OCO4)[C@@H](OC)O[C@@H]2CO)c1

-1.14
1.04
1.49

Data provenance is PubChem BioAssay.
